- Test system: AhR (Homo sapiens, UniProt P35869)
- Sequence (P35869 11-848): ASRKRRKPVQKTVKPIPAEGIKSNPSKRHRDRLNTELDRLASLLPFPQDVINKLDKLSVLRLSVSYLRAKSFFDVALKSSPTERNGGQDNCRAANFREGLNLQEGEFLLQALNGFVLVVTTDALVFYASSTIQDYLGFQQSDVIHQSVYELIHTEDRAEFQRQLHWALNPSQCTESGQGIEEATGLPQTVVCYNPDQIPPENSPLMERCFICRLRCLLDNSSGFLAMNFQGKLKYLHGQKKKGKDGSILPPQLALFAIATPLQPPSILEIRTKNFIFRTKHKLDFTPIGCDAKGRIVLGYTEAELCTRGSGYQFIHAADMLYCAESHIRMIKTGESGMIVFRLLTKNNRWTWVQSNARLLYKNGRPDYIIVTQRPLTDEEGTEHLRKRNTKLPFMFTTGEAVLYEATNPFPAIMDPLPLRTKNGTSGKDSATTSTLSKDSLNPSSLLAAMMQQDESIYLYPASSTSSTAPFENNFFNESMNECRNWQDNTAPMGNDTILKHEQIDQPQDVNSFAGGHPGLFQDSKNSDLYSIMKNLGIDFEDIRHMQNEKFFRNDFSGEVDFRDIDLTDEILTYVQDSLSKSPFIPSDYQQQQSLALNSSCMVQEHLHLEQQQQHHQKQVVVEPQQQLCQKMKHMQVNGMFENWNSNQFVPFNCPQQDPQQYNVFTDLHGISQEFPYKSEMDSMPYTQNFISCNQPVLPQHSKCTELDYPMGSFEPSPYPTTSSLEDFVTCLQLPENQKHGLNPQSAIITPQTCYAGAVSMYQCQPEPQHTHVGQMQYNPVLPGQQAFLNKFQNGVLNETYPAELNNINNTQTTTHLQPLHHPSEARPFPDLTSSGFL
- Assay protocol: AhR antagonism in U937 cells (Promega P450-Glo assay)
- Type: cell-based
- Set-up: endogenous in cells; host or cells: U937 cells
- Experimental parameters: CYP1A1 activity readout (Luciferin-CEE), head names VAF347, average, read-out: U937 Antagonist pIC50-VAF347: av. pIC50 (converted)
Property name: IC50 (nM)

P: COc1ncc(F)cc1-c1nc2c(c(NCCc3c[nH]c4ccccc34)n1)OCCN2
Q: COC[C@@H]1COc2c(NCCc3c[nH]c4ccccc34)nc(-c3cccc(F)c3)nc2N1
// select label with min value of measured IC50 from [ P , Q ] Answer with the label corresponding to your selection.
Q
(Q: 3.09 nM, P: 66.1 nM)

a: C[C@H]1COc2c(NCCc3c[nH]c4ccccc34)nc(-c3cncc(F)c3)nc2N1
b: O=c1[nH]cccc1-c1nc2c(c(NCCc3c[nH]c4ccccc34)n1)OCCN2
Hi there! Just curious which has the higher IC50 between a and b . Your answer should be the label attached to the chosen record.
b
(b: 3.8 nM, a: 1.12 nM)

a: O=c1[nH]cc(F)cc1-c1nc2c(c(NCCc3c[nH]c4cc(F)ccc34)n1)OCCN2
b: O=c1[nH]cc(C(F)(F)F)cc1-c1nc2c(c(NCCc3c[nH]c4ccccc34)n1)OCCN2
c: Cc1ncc(-c2nc3c(c(OCCc4c[nH]c5cc(F)ccc45)n2)OCCN3)s1
Write the entries in order, lowest recorded IC50 first. Write the labels in rank order as requested.
a, c, b

A: Cc1ncc(-c2nc(N[C@@H]3CCc4[nH]c5ccccc5c4C3)c3c(n2)N(S(C)(=O)=O)CCO3)s1
B: Cc1ncc(-c2nc3c(c(N[C@@H]4Cc5cccc6[nH]cc(c56)C4)n2)OCCN3)s1 (single isomer, unassigned)
C: COC[C@@H]1COc2c(NCCc3c[nH]c4ccccc34)nc(-c3cncc(F)c3)nc2N1
rank_up(items): orders items by reported IC50 in ascending numerical order. Field: ranking. Enter the labels in the order requested.
C, A, B
(C: 0.759 nM, A: 89.1 nM, B: 339 nM)

A: COC[C@@H]1COc2c(nc(-c3cnc(C)s3)nc2N[C@@H]2CCc3[nH]c4ccccc4c3C2)N1
B: Cc1ncc(-c2nc(NCCc3c[nH]c4ccccc34)c3c(n2)N(C2COC2)CCO3)s1
Returns: the label, A or B , whose recorded IC50 is the lower number. Give the label of your selection.
B

P: Cc1ncc(-c2nc3c(c(N(CCO)CCc4c[nH]c5ccccc45)n2)OCCN3)s1
Q: Fc1cncc(-c2nc3c(c(NCCc4c[nH]c5ccccc45)n2)OCCN3)c1
R: Cc1ncc(-c2nc3c(c(N[C@@H]4CCc5[nH]c6ccccc6c5C4)n2)OCCN3)s1
S: Cn1cc(-c2nc3c(c(NCCc4c[nH]c5ccccc45)n2)OCCN3)ccc1=O
T: CC(C)N1CCOc2c(NCCc3c[nH]c4ccccc34)nc(-c3cncc(F)c3)nc21
List from greatest to least IC50. List labels; respect the requested ordering.
S, R, P, T, Q

A: COC[C@H]1COc2c(NCCc3c[nH]c4ccccc34)nc(-c3cncc(F)c3)nc2N1
B: O=c1[nH]cc(F)cc1-c1nc2c(c(N[C@@H]3CCc4[nH]c5ccccc5c4C3)n1)OCCN2
Which value of IC50 is greater, the one for A or the one for B ? // caller expects the label of the chosen entry
B
(B: 126 nM, A: 0.513 nM)

P: Cc1ccc(-c2nc3c(c(NCCc4c[nH]c5cc(F)ccc45)n2)OCCN3)cn1
Q: COc1ncc(C)cc1-c1nc2c(c(NCCc3c[nH]c4ccccc34)n1)OCCN2
// pick min by IC50: P , Q Mark your answer with the label of the selected entry.
P
(P: 91.2 nM, Q: 457 nM)
